tested on: SW-620 colon; experiment: NCI tumour cell line growth inhibition, 48 h; in the data active means GI50 below about 0.43 µM; inactive means the rest
Classes used: active, inactive

| compound | assignedClass |
| --- | --- |
| C[n+]1c2cc(N)ccc2cc2ccc(N)cc21 (tested in a mixture with another compound) | active |
| O=C1c2ccc3c4c(ccc(c24)C(=O)N1CCCNCc1ccccc1)C(=O)N(CCCNCc1ccccc1)C3=O | active |
| COc1ccc(N2CCN(CN3CCN(c4ccc(OC)cc4)C3)C2)cc1 | inactive |
| Cc1c2cnccc2c(C)c2c1c1cc(C(=O)O)ccc1n2C | inactive |
| COc1cc(-c2nc3ccccc3[nH]2)ccc1OCC(=O)N=Nc1c(O)[nH]c2ccc(Cl)cc12 | inactive |
| CCCCCCCCCCCCOC1C(CNCC2OC3OC(C)(C)OC3C2NC(=O)Nc2ccc(C(F)(F)F)cc2)OC2OC(C)(C)OC21 (stereo unspecified) | inactive |
| CCc1nc(-n2c(CC)nc3ccccc3c2=O)nc(N)c1-c1ccc(Cl)cc1 | inactive |
| COc1ccc2c(c1)CC[C@@H]1[C@@H]2CC[C@]2(C)c3[nH]ncc3C[C@@H]12 | inactive |
| COc1cc[c]([Sb]([Br])([CH]=C(C)C)([CH]=C(C)C)[CH]=C(C)C)cc1 | inactive |
| COc1cccc2c1nc1cccc(OC)c1[n+]2[O-] | inactive |
| C=CCC(N[C@@H](CO)c1ccccc1)c1ccccn1 (stereo partly specified) | inactive |
| CN1C(=O)N(C)C2C1NN=c1s/c(=C\c3c[nH]c4ccccc34)c(=O)n12 (stereo unspecified) | active |
| N=C(N)c1ccc(-c2ccc(-c3cncc4ccccc34)s2)cc1F | inactive |
| COc1ccc2c(c1)C(=O)c1c-2c(OCCN(C)C)nc2cc(OC)ccc12 | inactive |
| COc1ccc2c(O)c(/C=C3\N=Nc4ncccc43)oc2c1C[C@H]1CCNC[C@H]1F | active |
| O=C(C[C@@]1(O)C(=O)Nc2c(Cl)ccc(Cl)c21)c1ccc(C2CC2)cc1 | active |
| CSC1=Nc2c(c(C)c(-c3ccccc3)n2CCCCl)C2=NC(=O)CN12 | inactive |
| NC(=O)c1ccc2nc(-c3ccc(C4(N)CCC4)cc3)c(-c3ccccc3)n2n1 | inactive |
| COc1cc(-c2nc(-c3nnc(-c4ccc(F)c(Cl)c4)o3)c3ccccn23)cc(OC)c1OC | inactive |
| COC1=C(C)C(=O)C2=C(C1=O)C(CO)N1C(C#N)C3CC4C(C1C2N1CCOC41)N3C (stereo unspecified) | active |
| COc1cc(/C=C/C(=O)NC[C@]2(O)CCC3C4CCc5cc(O)ccc5C4CCC32C)ccc1O (stereo partly specified) | inactive |

---

test system: HOP-92 NSCLC; test: NCI tumour cell line growth inhibition, 48 h

| compound | GI50 |
| --- | --- |
| O=c1c2[nH]c3ccccc3c2nc2n1CCS2 | 4.25 µM |
| COc1cccc2c1nc1cccc(OC)c1[n+]2[O-] | 2.71 µM |
| NC(=O)c1ccc2nc(-c3ccc(C4(N)CCC4)cc3)c(-c3ccccc3)n2n1 | 0.815 µM |
| C=CC(=O)NCCOc1cccc(Nc2cc(NCCCNC(=O)C3CCC3)c(Br)cn2)c1 | 0.826 µM |
| O=C(Nc1ccc(Cl)cc1F)c1cc(F)ccc1O | 0.196 µM |
| Fc1c[c-]c(-c2ccccn2)c(F)c1.[CH3-].[Pt+2].c1ccc([PH+](c2ccccc2)c2ccccn2)cc1 | 1.18 µM |
| Cc1cc(C(=O)N[C@@H](CCC(=O)O)C(=O)O)sc1CC[C@@H]1CNc2nc(N)[nH]c(=O)c2C1 | 0.0592 µM |
| COc1ccc2[nH]c(-c3ccccc3)c(C=C(C#N)C#N)c2c1 | 2.4 µM |
| Cc1c2cnccc2c(C)c2c1c1cc(C(=O)O)ccc1n2C | 0.913 µM |
| O=C1OCC2=C1C(c1cccc(C(F)(F)F)c1)c1cc3c(cc1N2CCO)OCO3 (configuration not stated) | 2.03 µM |
| COc1cc(CNc2nc3cc(N)cc(N)c3nc2-c2ccccc2)cc(OC)c1OC | 1.21 µM |
| CC(N)(Cc1c[nH]c2ccccc12)C(=O)O (configuration not stated) | 1800 µM |
